Test system: NCI-H23 lung
Test: NCI tumour cell line growth inhibition, 48 h
Each entry below lists one item and its recorded GI50 value.
property_measured: GI50

compound | property_measured | value
OB1OCc2cc(/C=C/c3cccc(C(F)(F)F)c3)ccc21 | GI50 | 0.625 µM
O=C1C(Cl)=C(Nc2ccccc2)C(=O)c2ccccc21 | GI50 | 1.92 µM
Cn1c2ccccc2c2c(=O)c3ccccc3[nH]c21 | GI50 | 30.5 µM
CC(=O)[O-].CC(=O)[O-].CC(=O)[O-].CC(=O)[O-].[Mo+2].[Mo+2] | GI50 | > 100 µM
O=S1(=O)NCCCN1CCNc1nccc(-c2c(-c3cccc(O)c3)nc3sccn23)n1 | GI50 | 29 µM
CC1(C)N=C(N)N=C(N)N1c1ccc(OCC(=O)Nc2ccccc2)c(Cl)c1 | GI50 | 2.96 µM
CC(=O)N[C@H](C(=O)N[C@@H](CCCNC(=N)N)C(=O)N[C@@H](CCCCN)C(=O)N[C@@H](CCCNC(=N)N)C(=O)N[C@]1(C)CCCCCC/C=C\CCC[C@@](C)(C(=O)N[C@@H](CCCNC(=N)N)C(=O)N[C@@H](CCC(=O)O)C(=O)N[C@@H](CC(C)C)C(=O)N[C@H](C(=O)N[C@@H](CCC(=O)O)C(N)=O)C(C)C)NC(=O)[C@H](CCC(N)=O)NC(=O)[C@H](CC(C)C)NC(=O)[C@H](CC(C)C)NC(=O)[C@H](CCCNC(=N)N)NC(=O)[C@H](CCCNC(=N)N)NC(=O)[C@H](CC(C)C)NC1=O)C(C)C | GI50 | 2.77 µM
Cc1cc(Nc2nc(SCc3ccc(C(=O)Nc4ccc(F)cc4N)cc3)nn3cccc23)n[nH]1 | GI50 | 0.603 µM
Cn1c([N+](=O)[O-])cnc1/C=C1\Oc2cc(Cl)ccc2C1=O | GI50 | 0.766 µM
COc1ccc2cc(-c3ccc(-c4ccc(C(=N)N)s4)s3)ccc2c1 | GI50 | 3.22 µM
Cc1ncc(C(=O)Nc2ccc(CN3CCN(C)CC3)c(C(F)(F)F)c2)cc1C#Cc1cnc(NC2CC2)c2ncccc12 | GI50 | 0.646 µM
c1ccc2nc3c(cc4ccccn43)nc2c1 | GI50 | 37.6 µM
CCOC1Oc2ccccc2-c2oc(=O)c(Sc3ccc(C)cc3)cc21 (stereo not drawn) | GI50 | 40.4 µM
